The listing below reports pKi for compounds tested on α2b adrenergic receptor (Homo sapiens).
Sequence (P18089 whole entry): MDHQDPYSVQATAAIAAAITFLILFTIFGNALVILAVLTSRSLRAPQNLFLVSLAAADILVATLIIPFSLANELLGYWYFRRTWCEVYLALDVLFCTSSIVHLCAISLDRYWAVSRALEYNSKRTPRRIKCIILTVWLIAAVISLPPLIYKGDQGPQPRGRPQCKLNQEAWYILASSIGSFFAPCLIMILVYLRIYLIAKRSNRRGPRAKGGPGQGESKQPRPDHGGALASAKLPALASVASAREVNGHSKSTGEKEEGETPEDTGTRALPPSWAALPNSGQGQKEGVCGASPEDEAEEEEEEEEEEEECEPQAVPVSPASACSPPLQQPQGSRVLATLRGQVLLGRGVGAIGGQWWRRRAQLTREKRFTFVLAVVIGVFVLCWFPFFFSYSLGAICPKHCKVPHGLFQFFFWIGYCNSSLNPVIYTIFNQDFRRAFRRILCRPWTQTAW
Just so you know, pKi here is -log10 of the concentration in molar units; reply with that number alone.

>>> assay_value("CNCC/C=C1\\c2ccccc2C[C@@H](O)c2ccccc21 (stereo in doubt) [(−)-E-10-OH-NT]")
5.37

# context switch: different compound, same pKi
Record CNCC/C=C1\c2ccccc2C[C@H](O)c2ccccc21 (stereo in doubt) [(+)-E-10-OH-NT] : what is its pKi with α2b adrenergic receptor (Homo sapiens)?
5.38

----------
The listing below reports IC50 for molecules tested on CYP2D6 (Homo sapiens).
Sequence (P10635 whole entry): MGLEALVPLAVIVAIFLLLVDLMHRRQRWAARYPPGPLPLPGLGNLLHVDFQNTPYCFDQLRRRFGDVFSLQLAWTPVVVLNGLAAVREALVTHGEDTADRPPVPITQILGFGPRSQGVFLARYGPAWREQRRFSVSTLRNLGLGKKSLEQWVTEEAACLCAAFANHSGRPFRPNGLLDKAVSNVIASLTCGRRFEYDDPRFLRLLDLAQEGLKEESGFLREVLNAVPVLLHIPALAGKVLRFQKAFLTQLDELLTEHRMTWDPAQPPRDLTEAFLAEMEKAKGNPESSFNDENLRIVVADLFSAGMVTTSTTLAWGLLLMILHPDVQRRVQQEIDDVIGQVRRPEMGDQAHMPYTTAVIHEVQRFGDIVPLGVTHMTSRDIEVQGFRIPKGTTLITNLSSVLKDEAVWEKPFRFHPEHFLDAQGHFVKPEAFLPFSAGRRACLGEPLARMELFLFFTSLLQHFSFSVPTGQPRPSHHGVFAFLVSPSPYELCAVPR
In your response, put the unit directly after the numeric value.

>>> assay_value("CN(C)CCC=C1c2ccccc2CCc2ccccc21 [AT, amitriptyline, reference compound]")
"0.82 µM"

# context switch: different molecule, same IC50
Record CNCCC=C1c2ccccc2CCc2ccccc21 [NT, nortriptyline, reference compound] : what is its IC50 with CYP2D6 (Homo sapiens)?
0.7 µM

----------
biological target: human NE transporter (hNET) (Homo sapiens); test: NE transporter competitive binding assay, [3H]nisoxetine; conditions: Example 14; read-out: NET Ki
Sequence (P23975 whole entry): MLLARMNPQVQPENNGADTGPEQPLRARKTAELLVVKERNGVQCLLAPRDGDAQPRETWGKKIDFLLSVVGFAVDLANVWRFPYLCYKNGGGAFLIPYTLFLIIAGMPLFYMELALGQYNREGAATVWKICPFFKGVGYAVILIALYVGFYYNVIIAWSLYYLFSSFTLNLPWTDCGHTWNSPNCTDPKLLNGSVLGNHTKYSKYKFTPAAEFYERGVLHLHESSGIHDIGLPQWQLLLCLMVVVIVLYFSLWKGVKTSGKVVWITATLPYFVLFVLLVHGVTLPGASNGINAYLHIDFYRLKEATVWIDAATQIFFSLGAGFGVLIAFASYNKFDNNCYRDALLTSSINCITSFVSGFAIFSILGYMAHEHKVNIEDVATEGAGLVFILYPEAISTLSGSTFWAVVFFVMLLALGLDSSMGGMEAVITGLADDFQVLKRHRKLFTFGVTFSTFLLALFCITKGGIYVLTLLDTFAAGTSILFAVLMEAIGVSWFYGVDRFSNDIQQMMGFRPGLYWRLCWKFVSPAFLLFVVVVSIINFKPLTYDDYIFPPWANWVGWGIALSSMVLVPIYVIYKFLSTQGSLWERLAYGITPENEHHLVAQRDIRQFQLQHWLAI
MEASURED_PROPERTY: pKi
Just so you know, pKi here is -log10 of the concentration in molar units; reply with that number alone.

In the examples that follow, each entry is paired with its recorded pKi.
>>> assay_value("CNCC/C=C1\\c2ccccc2C[C@H](O)c2ccccc21 (stereo in doubt) [(+)-E-10-OH-NT]")
7.02
>>> assay_value("CNCC/C=C1\\c2ccccc2C[C@@H](O)c2ccccc21 (stereo in doubt) [(−)-E-10-OH-NT]")
7.09

# context switch: different molecule, same pKi
Recorded pKi of CNCC/C=C1\c2ccccc2CC(O)c2ccccc21 (racemic) [(±)-E-10-OH-NT, reference compound] , please.
7.29

----------
The listing below reports Ki for compounds tested on human muscarinic receptor M3 (Homo sapiens).
Sequence (P20309 whole entry): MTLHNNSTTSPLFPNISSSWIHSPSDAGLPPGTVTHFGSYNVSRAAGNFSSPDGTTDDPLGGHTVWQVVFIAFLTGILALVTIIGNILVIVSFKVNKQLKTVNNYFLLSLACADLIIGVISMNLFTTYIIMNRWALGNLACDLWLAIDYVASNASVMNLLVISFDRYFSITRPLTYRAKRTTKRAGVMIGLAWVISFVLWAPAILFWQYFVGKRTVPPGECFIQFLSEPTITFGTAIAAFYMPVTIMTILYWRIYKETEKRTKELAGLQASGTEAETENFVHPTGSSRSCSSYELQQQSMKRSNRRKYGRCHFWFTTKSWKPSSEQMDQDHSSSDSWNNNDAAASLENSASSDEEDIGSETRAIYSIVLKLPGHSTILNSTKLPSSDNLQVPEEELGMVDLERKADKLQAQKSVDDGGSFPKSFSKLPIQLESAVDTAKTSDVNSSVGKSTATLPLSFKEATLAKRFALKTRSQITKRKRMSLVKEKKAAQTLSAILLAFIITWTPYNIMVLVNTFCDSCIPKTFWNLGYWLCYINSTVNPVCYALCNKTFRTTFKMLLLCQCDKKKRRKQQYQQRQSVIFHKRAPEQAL
Quick reminder: number only, in nM, skip the unit.

>>> assay_value("CNCC/C=C1\\c2ccccc2C[C@H](O)c2ccccc21 (stereo in doubt) [(+)-E-10-OH-NT]")
820

# context switch: different compound, same Ki
Record CNCC/C=C1\c2ccccc2C[C@@H](O)c2ccccc21 (stereo in doubt) [(−)-E-10-OH-NT] : what is its Ki with human muscarinic receptor M3 (Homo sapiens)?
390
